Recorded Activity by entry
# System: Pseudomonas fluorescens
# test_protocol: Antibacterial activity against Pseudomonas fluorescens after 24 hrs by MTT assay
# Type: functional
Write the answer as a number in µg/mL, unit excluded.

Solved cases (3 shown):
Oc1ccc(F)cc1/C=N/c1ccc(Cl)cc1 : 25
Oc1ccc(F)cc1/C=N/C1CCCC1 : 12.5
Oc1ccc(F)cc1/C=N/c1ccc(F)cc1 : 12.5

Pseudomonas fluorescens / Activity / Oc1ccc(F)cc1/C=N/CCN1CCNCC1 : value?
25

What about this compound? CC(C)c1ccc(/N=C/c2cc(F)ccc2O)cc1
100

Param item: Oc1ccc(F)cc1/C=N/c1ccc(Br)cc1
25

Now give it for Oc1ccc(F)cc1/C=N/c1ccccc1Cl too.
12.5

Moving on to the next compound: Oc1ccc(CC/N=C/c2cc(F)ccc2O)cc1
3.13
